# target under test: PPE36 (Mycobacterium tuberculosis)
# Sequence (P9WI01 whole entry): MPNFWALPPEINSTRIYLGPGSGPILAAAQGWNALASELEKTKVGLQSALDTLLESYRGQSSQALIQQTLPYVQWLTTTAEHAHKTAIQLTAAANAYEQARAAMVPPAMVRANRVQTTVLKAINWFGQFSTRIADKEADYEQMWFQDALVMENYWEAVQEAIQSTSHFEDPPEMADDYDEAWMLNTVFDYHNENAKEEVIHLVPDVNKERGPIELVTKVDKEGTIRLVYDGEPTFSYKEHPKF
# Sequence (L7N6B5 1-98 partner): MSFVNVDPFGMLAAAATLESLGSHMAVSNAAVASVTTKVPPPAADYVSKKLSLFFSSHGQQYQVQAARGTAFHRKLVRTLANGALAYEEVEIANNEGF
measured attribute: pKd
By convention, pKd is the negative base-10 log of a molar concentration.

Prompt: pKd for `C=CC1=C(C)C2=Cc3c(C=C)c(C)c4[n]3[Fe]([Cl])[n]3c(c(C)c(CCC(=O)O)c3=CC3=NC(=C4)C(C)=C3CCC(=O)O)=CC1=N2` ?
Completion: 2.40

###

# target under test: UniProt P9WHX7
# Sequence (P9WHX7 1-582): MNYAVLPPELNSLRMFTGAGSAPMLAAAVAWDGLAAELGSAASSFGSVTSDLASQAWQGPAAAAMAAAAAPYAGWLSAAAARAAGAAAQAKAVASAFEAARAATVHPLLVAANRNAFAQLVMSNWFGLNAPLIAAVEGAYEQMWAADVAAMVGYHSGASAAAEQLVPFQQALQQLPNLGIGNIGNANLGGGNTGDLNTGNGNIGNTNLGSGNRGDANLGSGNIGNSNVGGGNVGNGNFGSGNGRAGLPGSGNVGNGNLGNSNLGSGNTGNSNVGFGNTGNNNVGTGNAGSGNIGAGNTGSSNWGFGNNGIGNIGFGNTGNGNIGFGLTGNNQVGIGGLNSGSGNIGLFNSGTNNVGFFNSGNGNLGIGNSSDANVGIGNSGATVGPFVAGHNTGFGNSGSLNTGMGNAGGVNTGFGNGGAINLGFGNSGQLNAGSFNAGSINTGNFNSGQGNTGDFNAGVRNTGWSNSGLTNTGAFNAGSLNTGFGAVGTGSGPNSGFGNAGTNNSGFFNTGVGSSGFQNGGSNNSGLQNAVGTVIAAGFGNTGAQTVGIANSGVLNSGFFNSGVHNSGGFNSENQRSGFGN
measured attribute: pKd
By convention, pKd is the negative base-10 log of a molar concentration.

Prompt: Tell me the measured pKd of `C=CC1=C(C)C2=Cc3c(C=C)c(C)c4[n]3[Fe]([Cl])[n]3c(c(C)c(CCC(=O)O)c3=CC3=NC(=C4)C(C)=C3CCC(=O)O)=CC1=N2` , please.
Completion: 3.40
